target: Nitric oxide synthase (neuronal, human recombinant) nNOS (Homo sapiens); construct: purchased Axxora LLC ALX-201-068; assay: nNOS (human) enzyme assay, [3H]-L-arginine to L-citrulline; format: biochemical; conditions: Table 15; read-out: IC50 in μM (Human nNOS)
measured_property: IC50 (µM)

test_smiles	readout_unit	value_measured
N=C(Nc1ccc2[nH]cc(C3=CCN(CCO)CC3)c2c1)c1cccs1	µM	0.748

---

biological target: Nitric oxide synthase (endothelial, human recombinant) eNOS (Homo sapiens, UniProt P29474); construct: purchased Axxora LLC ALX-201-070; assay: eNOS (human) enzyme assay, [3H]-L-arginine to L-citrulline; format: biochemical; details: Table 15; read-out: IC50 in μM (Human eNOS)
Sequence (P29474 whole entry): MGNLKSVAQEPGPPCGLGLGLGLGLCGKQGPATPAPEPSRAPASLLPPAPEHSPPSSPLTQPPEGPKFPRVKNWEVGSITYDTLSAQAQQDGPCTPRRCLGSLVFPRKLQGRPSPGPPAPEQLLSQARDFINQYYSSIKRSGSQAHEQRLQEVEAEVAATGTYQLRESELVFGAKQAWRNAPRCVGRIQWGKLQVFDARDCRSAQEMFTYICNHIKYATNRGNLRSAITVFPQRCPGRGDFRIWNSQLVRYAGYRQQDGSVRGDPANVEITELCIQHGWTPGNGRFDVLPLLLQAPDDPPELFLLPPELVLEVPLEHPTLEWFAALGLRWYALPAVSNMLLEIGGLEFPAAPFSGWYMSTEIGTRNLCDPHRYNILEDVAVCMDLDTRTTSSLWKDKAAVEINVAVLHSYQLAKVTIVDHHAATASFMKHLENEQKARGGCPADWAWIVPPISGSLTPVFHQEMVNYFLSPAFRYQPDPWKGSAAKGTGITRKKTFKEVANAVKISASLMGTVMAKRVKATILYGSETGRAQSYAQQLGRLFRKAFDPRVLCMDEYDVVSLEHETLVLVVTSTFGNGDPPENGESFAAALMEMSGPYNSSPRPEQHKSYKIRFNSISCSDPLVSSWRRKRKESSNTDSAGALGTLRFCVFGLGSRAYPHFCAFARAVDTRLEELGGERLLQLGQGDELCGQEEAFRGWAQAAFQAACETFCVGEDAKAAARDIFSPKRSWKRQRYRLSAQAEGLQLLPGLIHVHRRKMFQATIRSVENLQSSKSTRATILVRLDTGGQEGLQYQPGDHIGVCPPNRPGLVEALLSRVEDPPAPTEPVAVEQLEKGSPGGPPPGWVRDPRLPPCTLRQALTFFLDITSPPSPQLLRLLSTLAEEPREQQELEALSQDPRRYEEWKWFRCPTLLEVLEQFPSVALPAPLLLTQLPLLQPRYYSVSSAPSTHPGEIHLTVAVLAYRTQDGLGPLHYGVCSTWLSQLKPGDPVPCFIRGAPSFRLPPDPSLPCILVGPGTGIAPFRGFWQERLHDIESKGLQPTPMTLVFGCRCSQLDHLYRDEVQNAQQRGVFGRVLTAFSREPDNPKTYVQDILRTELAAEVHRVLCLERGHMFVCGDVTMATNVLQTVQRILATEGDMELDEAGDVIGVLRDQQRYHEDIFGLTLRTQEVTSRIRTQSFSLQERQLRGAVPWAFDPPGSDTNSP

compound	IC50
N=C(Nc1ccc2[nH]cc(C3=CCN(CCO)CC3)c2c1)c1cccs1 [Compound 24]	74.1 µM
N=C(Nc1ccc2[nH]cc(CCN3CCCC3)c2c1)c1cccs1 [Compound 25]	9.92 µM

---

experiment: Human liver microsome in vitro metabolic stability assay; assay type: in vitro ADME; settings: both sexes, pooled human liver microsomes, pH 7.4, human liver microsomes, with NADPH regenerating system, read-out: estimated half-life for disappearance from the microsomal reaction mixture

molecule	half-life at 10 μM
CN1CCC(c2c[nH]c3ccc(NC(=N)c4cccs4)cc23)C1 (single isomer, unassigned)	2.2 h

---

target: Nitric oxide synthase (endothelial, human recombinant) eNOS (Homo sapiens, UniProt P29474); construct: purchased Axxora LLC ALX-201-070; experiment: eNOS (human) enzyme assay, [3H]-L-arginine to L-citrulline; type: biochemical; details: Table 10, human eNOS; read-out: eNOSh
pIC50: −log10 of the molar value.

compound	assay_system	pIC50
CN1CCC(c2c[nH]c3ccc(NC(=N)c4cccs4)cc23)C1 (single isomer, unassigned) [Compound 6a]	Nitric oxide synthase (endothelial, human recombinant) eNOS (Homo sapiens, UniProt P29474)	4.34
CN1CCC(c2c[nH]c3ccc(NC(=N)c4cccs4)cc23)C1 (racemic) [Compound 6]	Nitric oxide synthase (endothelial, human recombinant) eNOS (Homo sapiens, UniProt P29474)	4.41
CN1CCC(c2c[nH]c3ccc(NC(=N)c4cccs4)cc23)C1 (single isomer, unassigned) [Compound 6b]	Nitric oxide synthase (endothelial, human recombinant) eNOS (Homo sapiens, UniProt P29474)	4.69

---

target: 5-HT1B (Rattus norvegicus, UniProt P28564); construct: from tissue; host or cells: rat cerebral cortex; experiment: 5-HT1B binding assay (agonist radioligand), rat cerebral cortex; settings: Table 11, rat 1B receptor binding
Sequence (P28564 whole entry): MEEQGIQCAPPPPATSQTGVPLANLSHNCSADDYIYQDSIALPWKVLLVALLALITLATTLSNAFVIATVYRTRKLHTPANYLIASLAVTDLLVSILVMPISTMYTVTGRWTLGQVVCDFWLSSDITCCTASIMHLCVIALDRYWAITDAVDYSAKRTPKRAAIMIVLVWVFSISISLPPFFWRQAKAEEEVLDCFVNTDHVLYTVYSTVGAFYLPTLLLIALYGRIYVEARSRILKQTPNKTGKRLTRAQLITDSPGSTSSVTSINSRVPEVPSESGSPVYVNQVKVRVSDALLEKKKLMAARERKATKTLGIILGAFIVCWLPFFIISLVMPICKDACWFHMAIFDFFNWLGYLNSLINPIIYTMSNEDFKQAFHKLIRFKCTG

compound	IC50, nM
CN1CCC(c2c[nH]c3ccc(NC(=N)c4cccs4)cc23)C1 (single isomer, unassigned) [Compound 6a]	1400
CN1CCC(c2c[nH]c3ccc(NC(=N)c4cccs4)cc23)C1 (single isomer, unassigned) [Compound 6b]	705
CN1CCC(c2c[nH]c3ccc(NC(=N)c4cccs4)cc23)C1 (racemic) [Compound 6]	850

---

biological target: Nitric oxide synthase (neuronal, human recombinant) nNOS (Homo sapiens); construct: purchased Axxora LLC ALX-201-068; test: nNOS (human) enzyme assay, [3H]-L-arginine to L-citrulline; format: biochemical; settings: IC50 in μM (Human nNOS), Table 15
measured_property: IC50

test_smiles	value_measured
N=C(Nc1ccc2[nH]cc(CCN3CCCC3)c2c1)c1cccs1	0.427 µM

---

biological target: UniProt F1MMU1; assay: 5-HT1D binding assay (agonist radioligand), bovine caudate membranes; details: read-out: 5HT 1D; Table 14; listed as 20b (isomer-2), dihydrochloride
pIC50: −log10 of the molar value. Counter-ions that a name gives are not always drawn.

molecule	pIC50
CNC1CCCC(c2c[nH]c3ccc(NC(=N)c4cccs4)cc23)C1 (single isomer, unassigned) [Compound 20b, dihydrochloride]	5.85

---

Below, each entry is listed with its recorded pIC50.
target: Nitric oxide synthase (neuronal, human recombinant) nNOS (Homo sapiens, UniProt P29475); construct: purchased Axxora LLC ALX-201-068; test: nNOS (human) enzyme assay, [3H]-L-arginine to L-citrulline; format: biochemical; conditions: Table 10, human nNOS; read-out: nNOSh
Sequence (P29475 whole entry): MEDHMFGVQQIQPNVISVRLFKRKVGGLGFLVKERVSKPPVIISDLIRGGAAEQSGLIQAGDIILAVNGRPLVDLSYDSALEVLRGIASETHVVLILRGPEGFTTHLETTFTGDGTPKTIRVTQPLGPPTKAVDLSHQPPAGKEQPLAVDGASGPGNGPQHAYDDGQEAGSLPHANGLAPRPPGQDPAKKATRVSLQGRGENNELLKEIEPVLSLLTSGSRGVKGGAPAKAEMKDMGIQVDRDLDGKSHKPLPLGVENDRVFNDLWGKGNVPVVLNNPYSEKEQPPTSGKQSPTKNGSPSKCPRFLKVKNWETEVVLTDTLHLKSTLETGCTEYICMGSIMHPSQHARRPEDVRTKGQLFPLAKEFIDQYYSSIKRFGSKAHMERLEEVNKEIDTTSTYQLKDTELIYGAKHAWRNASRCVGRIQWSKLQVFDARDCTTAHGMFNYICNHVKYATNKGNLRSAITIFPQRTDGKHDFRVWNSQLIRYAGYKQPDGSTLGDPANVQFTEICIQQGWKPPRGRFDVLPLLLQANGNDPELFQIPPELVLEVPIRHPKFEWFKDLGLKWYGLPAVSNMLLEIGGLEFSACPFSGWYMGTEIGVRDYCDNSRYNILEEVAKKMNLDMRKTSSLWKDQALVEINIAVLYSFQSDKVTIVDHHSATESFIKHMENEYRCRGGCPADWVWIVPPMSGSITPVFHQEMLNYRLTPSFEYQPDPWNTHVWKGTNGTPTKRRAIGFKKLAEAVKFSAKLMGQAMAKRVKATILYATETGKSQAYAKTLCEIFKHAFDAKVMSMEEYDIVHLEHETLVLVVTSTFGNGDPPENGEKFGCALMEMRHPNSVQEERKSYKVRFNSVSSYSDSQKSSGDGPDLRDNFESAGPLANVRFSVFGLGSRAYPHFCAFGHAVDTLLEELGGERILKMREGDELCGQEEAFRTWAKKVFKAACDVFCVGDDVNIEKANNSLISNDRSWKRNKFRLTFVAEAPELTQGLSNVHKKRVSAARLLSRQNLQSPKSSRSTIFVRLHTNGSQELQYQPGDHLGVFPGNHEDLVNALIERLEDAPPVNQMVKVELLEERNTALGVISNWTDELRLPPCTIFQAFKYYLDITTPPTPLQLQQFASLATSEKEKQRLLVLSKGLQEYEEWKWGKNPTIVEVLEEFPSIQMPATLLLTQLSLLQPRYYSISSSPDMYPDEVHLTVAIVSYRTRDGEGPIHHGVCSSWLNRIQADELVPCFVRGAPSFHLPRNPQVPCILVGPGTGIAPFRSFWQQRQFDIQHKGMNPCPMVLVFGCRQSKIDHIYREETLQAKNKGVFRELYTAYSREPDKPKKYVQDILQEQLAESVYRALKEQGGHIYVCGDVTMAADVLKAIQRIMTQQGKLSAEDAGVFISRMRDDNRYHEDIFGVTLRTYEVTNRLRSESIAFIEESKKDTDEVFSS
pIC50: −log10 of the molar value.
measured_property: pIC50

compound	assay_system	value_measured
CN1CCC(c2c[nH]c3ccc(NC(=N)c4cccs4)cc23)C1 (single isomer, unassigned) [Compound 6b]	Nitric oxide synthase (neuronal, human recombinant) nNOS (Homo sapiens, UniProt P29475)	6.69
CN1CCC(c2c[nH]c3ccc(NC(=N)c4cccs4)cc23)C1 (racemic) [Compound 6]	Nitric oxide synthase (neuronal, human recombinant) nNOS (Homo sapiens, UniProt P29475)	6.40
CN1CCC(c2c[nH]c3ccc(NC(=N)c4cccs4)cc23)C1 (single isomer, unassigned) [Compound 6a]	Nitric oxide synthase (neuronal, human recombinant) nNOS (Homo sapiens, UniProt P29475)	6.17

---

Below, each entry is listed with its recorded pIC50.
molecular target: 5-HT1D (Bos taurus, UniProt F1MMU1); experiment: 5-HT1D binding assay (agonist radioligand), bovine caudate membranes; details: Table 11, bovine 1D receptor binding; read-out: 5HT1D
Sequence (F1MMU1 1-377): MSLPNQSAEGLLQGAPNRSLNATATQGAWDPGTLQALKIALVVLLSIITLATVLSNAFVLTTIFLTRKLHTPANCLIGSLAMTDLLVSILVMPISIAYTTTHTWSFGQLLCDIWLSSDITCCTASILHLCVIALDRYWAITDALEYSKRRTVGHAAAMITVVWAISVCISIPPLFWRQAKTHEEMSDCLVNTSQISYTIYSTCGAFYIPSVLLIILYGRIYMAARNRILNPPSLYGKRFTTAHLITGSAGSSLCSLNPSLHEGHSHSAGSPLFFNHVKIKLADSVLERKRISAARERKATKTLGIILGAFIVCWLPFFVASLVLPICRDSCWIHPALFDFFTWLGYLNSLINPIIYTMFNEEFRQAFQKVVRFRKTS
pIC50: −log10 of the molar value.

molecule	assay_system	pIC50
CN1CCC(c2c[nH]c3ccc(NC(=N)c4cccs4)cc23)C1 (single isomer, unassigned) [Compound 6a]	5-HT1D (Bos taurus, UniProt F1MMU1)	6.77
CNS(=O)(=O)Cc1ccc2[nH]cc(CCN(C)C)c2c1 [Sumatriptan, reference compound]	5-HT1D (Bos taurus, UniProt F1MMU1)	7.23
CN1CCC(c2c[nH]c3ccc(NC(=N)c4cccs4)cc23)C1 (racemic) [Compound 6]	5-HT1D (Bos taurus, UniProt F1MMU1)	6.72
CN1CCC(c2c[nH]c3ccc(NC(=N)c4cccs4)cc23)C1 (single isomer, unassigned) [Compound 6b]	5-HT1D (Bos taurus, UniProt F1MMU1)	7.10

---

target: Nitric oxide synthase (endothelial, human recombinant) eNOS (Homo sapiens); construct: purchased Axxora LLC ALX-201-070; assay: eNOS (human) enzyme assay, [3H]-L-arginine to L-citrulline; type: biochemical; conditions: Table 13; read-out: Human eNOS
pIC50: −log10 of the molar value.

test_smiles	pIC50
CCN1CC=C(c2c[nH]c3ccc(NC(=N)c4cccs4)cc23)CC1	4.16

The reported measurements were obtained from patent US8673909B2.
